targetDesc: Melanocyte-stimulating hormone receptor (Homo sapiens, UniProt Q01726)
Sequence (Q01726 whole entry): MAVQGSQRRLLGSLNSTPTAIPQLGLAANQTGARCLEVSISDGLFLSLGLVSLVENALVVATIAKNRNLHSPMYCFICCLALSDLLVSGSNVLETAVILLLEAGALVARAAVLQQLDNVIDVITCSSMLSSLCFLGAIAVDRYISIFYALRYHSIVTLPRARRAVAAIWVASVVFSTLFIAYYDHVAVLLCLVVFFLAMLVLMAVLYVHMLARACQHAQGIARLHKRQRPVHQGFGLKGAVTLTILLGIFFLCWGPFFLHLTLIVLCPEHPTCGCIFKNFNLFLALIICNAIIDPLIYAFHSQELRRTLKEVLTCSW
protocolText: Displacement of [125I]NDPalphaMSH from human cloned melanocortin receptor 1b expressed in CHO cells
Assay type: cell-based
Property: IC50; scope: individual compounds

Consider the worked cases shown below.
structureAsSmiles	measurementLabel	observedMeasurement
CCCC[C@H](NC(C)=O)C(=O)N[C@H]1CC(=O)NCCCC[C@@H](C(N)=O)NC(=O)[C@H](Cc2c[nH]c3ccccc23)NC(=O)[C@@H]2CCCN2C(=O)[C@@H](Cc2ccc(-c3ccccc3)cc2)NC(=O)[C@H](Cc2c[nH]cn2)NC1=O	IC50	45 nM (antagonist)
CCCC[C@H](NC(C)=O)C(=O)N[C@H]1CC(=O)NCCCC[C@@H](C(N)=O)NC(=O)[C@H](Cc2c[nH]c3ccccc23)NC(=O)[C@@H]2CCCN2C(=O)[C@@H](Cc2ccc(OC)cc2)NC(=O)[C@H](Cc2cnc[nH]2)NC1=O	IC50	500 nM (antagonist)
CCCC[C@H](NC(C)=O)C(=O)N[C@H]1CC(=O)NCCCC[C@@H](C(N)=O)NC(=O)[C@H](Cc2c[nH]c3ccccc23)NC(=O)[C@@H]2CCCCN2C(=O)[C@@H](Cc2ccc(-c3ccccc3)cc2)NC(=O)[C@@H]2Cc3ccccc3CN2C1=O	IC50	710 nM (antagonist)

Kindly review the next compound as well.
Quick check: IC50 of CCCC[C@H](NC(C)=O)C(=O)N[C@H]1CC(=O)NCCCC[C@@H](C(N)=O)NC(=O)[C@H](Cc2c[nH]c3ccccc23)NC(=O)[C@@H]2CCCN2C(=O)[C@@H](Cc2ccc(Cl)cc2)NC(=O)[C@H](Cc2c[nH]cn2)NC1=O ?
560 nM (antagonist)

---

targetDesc: Melanocortin receptor 5 (Homo sapiens)
Sequence (P33032 whole entry): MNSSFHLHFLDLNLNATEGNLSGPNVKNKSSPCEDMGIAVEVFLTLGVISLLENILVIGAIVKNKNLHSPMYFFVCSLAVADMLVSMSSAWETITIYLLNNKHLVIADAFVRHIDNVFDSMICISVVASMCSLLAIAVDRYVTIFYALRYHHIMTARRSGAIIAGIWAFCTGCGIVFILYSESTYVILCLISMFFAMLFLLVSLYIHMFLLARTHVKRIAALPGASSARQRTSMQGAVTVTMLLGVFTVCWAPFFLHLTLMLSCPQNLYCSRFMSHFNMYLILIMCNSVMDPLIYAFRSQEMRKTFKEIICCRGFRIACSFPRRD
protocolText: Agonist activity at human MC5R expressed in CHO cells assessed as cAMP accumulation
Type: functional, cell-based
Starred links: 1 amine or outer side, 2 acyl side, 3 side chain; linkers in the order of their positions; H or OH if unused. Positions of bridges follow the written chain, without caps; N, C: chain ends. Non-standard residues stand in square brackets, D forms with d. Residues, ends and D or L forms follow the SMILES beside them. ξ: configuration not given here. X2 = O=C([C@@H](Cc1ccc(Cc2ccccc2)cc1)N[*:1])[*:2]; Oic(3aξ,7aξ) = O=C(O)[C@@H]1CC2CCCCC2N1; Pip = O=C(O)[C@@H]1CCCCN1; Nle = CCCC[C@H](N)C(=O)O
measurementLabel: EC50

molecule	observedMeasurement
CCCC[C@H](NC(C)=O)C(=O)N[C@H]1CC(=O)NCCCC[C@@H](C(N)=O)NC(=O)[C@H](Cc2c[nH]c3ccccc23)NC(=O)[C@@H]2CCCCN2C(=O)[C@@H](Cc2ccc(-c3ccccc3)cc2)NC(=O)[C@H](Cc2c[nH]cn2)NC1=O	0.37 nM (agonist)

// query EC50 value for entry CCCC[C@H](NC(C)=O)C(=O)N[C@H]1CC(=O)NCCCC[C@@H](C(N)=O)NC(=O)[C@H](Cc2c[nH]c3ccccc23)NC(=O)[C@@H]2CCCCN2C(=O)[C@@H](Cc2ccc(Cc3ccccc3)cc2)NC(=O)[C@@H]2CC3CCCCC3N2C1=O (some centres not stated) (Ac-[Nle]D[Oic(3aξ,7aξ)][X2][Pip]WK-NH2; lactam 2-7)
31 nM (agonist)

---

targetDesc: Melanocyte-stimulating hormone receptor (Homo sapiens)
protocolText: Displacement of [125I]NDPalphaMSH from human cloned melanocortin receptor 1b expressed in CHO cells
Type: cell-based
A collection of compounds and their measured IC50

compound	targetDesc	observedMeasurement
CCCC[C@H](NC(C)=O)C(=O)N[C@H]1CC(=O)NCCCC[C@@H](C(N)=O)NC(=O)[C@H](Cc2c[nH]c3ccccc23)NC(=O)[C@@H]2CCCN2C(=O)[C@@H](CCC(N)=O)NC(=O)[C@H](Cc2c[nH]cn2)NC1=O	Melanocyte-stimulating hormone receptor (Homo sapiens)	> 10 µM
CCCC[C@H](NC(C)=O)C(=O)N[C@H]1CC(=O)NCCCC[C@@H](C(N)=O)NC(=O)[C@H](Cc2c[nH]c3ccccc23)NC(=O)[C@@H]2CCCN2C(=O)[C@@H](Cc2ccc(-c3ccccc3)cc2)NC(=O)[C@@H]2CCCN2C1=O	Melanocyte-stimulating hormone receptor (Homo sapiens)	2.1 µM (antagonist)
CCCC[C@H](NC(C)=O)C(=O)N[C@H]1CC(=O)NCCCC[C@@H](C(N)=O)NC(=O)[C@H](Cc2c[nH]c3ccccc23)NC(=O)[C@@H]2CCCN2C(=O)[C@@H](Cc2cnc[nH]2)NC(=O)[C@H](Cc2cnc[nH]2)NC1=O	Melanocyte-stimulating hormone receptor (Homo sapiens)	> 10 µM
CCCC[C@H](NC(C)=O)C(=O)N[C@H]1CC(=O)NCCCC[C@@H](C(N)=O)NC(=O)[C@H](Cc2c[nH]c3ccccc23)NC(=O)[C@@H]2CCCN2C(=O)[C@@H](CCCCN)NC(=O)[C@H](Cc2cnc[nH]2)NC1=O	Melanocyte-stimulating hormone receptor (Homo sapiens)	> 10 µM

Look up IC50 for this compound: CCCC[C@H](NC(C)=O)C(=O)N[C@H]1CC(=O)NCCCC[C@@H](C(N)=O)NC(=O)[C@H](Cc2c[nH]c3ccccc23)NC(=O)[C@@H]2CCCN2C(=O)[C@@H](Cc2cccs2)NC(=O)[C@H](Cc2cnc[nH]2)NC1=O
> 5 µM

Likewise for CCCC[C@H](NC(C)=O)C(=O)N[C@H]1CC(=O)NCCCC[C@@H](C(N)=O)NC(=O)[C@H](Cc2c[nH]c3ccccc23)NC(=O)[C@@H]2CCCN2C(=O)[C@@H](Cc2ccc(-c3ccccc3)cc2)NC(=O)[C@@H]2CC3CCCCC3N2C1=O (stereo partly specified) ?
7.8 µM (antagonist)

---

targetDesc: Melanocyte-stimulating hormone receptor (Homo sapiens)
protocolText: Agonist activity at human melanocortin receptor 1b expressed in CHO cells assessed as cAMP accumulation
Format: functional, cell-based
measurementLabel: EC50

Before answering, review these 2 worked examples.
structureAsSmiles	EC50
CCCC[C@H](NC(C)=O)C(=O)N[C@H]1CC(=O)NCCCC[C@@H](C(N)=O)NC(=O)[C@H](Cc2c[nH]c3ccccc23)NC(=O)[C@@H]2CCCN2C(=O)[C@@H](Cc2ccc(-c3ccccc3)cc2)NC(=O)[C@@H]2CCCN2C1=O	350 nM (agonist)
CCCC[C@H](NC(C)=O)C(=O)N[C@H]1CC(=O)NCCCC[C@@H](C(N)=O)NC(=O)[C@H](Cc2c[nH]c3ccccc23)NC(=O)[C@@H]2CCCN2C(=O)[C@@H](Cc2ccc(O)cc2)NC(=O)[C@H](Cc2cnc[nH]2)NC1=O	> 2500 nM

Give its EC50 value. Item: CCCC[C@H](NC(C)=O)C(=O)N[C@H]1CC(=O)NCCCC[C@@H](C(N)=O)NC(=O)[C@H](Cc2c[nH]c3ccccc23)NC(=O)[C@@H]2CCCN2C(=O)[C@@H](Cc2ccccc2)NC(=O)[C@H](Cc2cnc[nH]2)NC1=O
1300 nM (agonist)

Thanks! And CCCC[C@H](NC(C)=O)C(=O)N[C@H]1CC(=O)NCCCC[C@@H](C(N)=O)NC(=O)[C@H](Cc2c[nH]c3ccccc23)NC(=O)[C@@H]2CCCN2C(=O)[C@@H](Cc2ccc(OCC)cc2)NC(=O)[C@H](Cc2cnc[nH]2)NC1=O ?
60 nM (agonist)

---

targetDesc: Melanocortin receptor 4 (Homo sapiens)
Sequence (P32245 whole entry): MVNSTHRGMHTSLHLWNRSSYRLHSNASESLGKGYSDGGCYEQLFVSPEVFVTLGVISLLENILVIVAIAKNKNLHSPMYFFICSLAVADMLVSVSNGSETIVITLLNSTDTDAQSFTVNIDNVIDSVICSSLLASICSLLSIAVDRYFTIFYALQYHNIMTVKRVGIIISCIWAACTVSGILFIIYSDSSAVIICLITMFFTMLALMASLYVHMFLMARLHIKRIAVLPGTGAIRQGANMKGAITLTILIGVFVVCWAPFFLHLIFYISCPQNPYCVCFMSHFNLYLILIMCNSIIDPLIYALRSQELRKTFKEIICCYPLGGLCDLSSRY
protocolText: Displacement of [125I]NDPalphaMSH from human cloned MC4R expressed in CHO cells
Type: cell-based
Starred links: 1 amine or outer side, 2 acyl side, 3 side chain; linkers in the order of their positions; H or OH if unused. Positions of bridges follow the written chain, without caps; N, C: chain ends. Non-standard residues stand in square brackets, D forms with d. Residues, ends and D or L forms follow the SMILES beside them. ξ: configuration not given here. X2 = O=C([C@@H](Cc1ccc(Cc2ccccc2)cc1)N[*:1])[*:2]; Oic(3aξ,7aξ) = O=C(O)[C@@H]1CC2CCCCC2N1; Pip = O=C(O)[C@@H]1CCCCN1; Nle = CCCC[C@H](N)C(=O)O
measurementLabel: IC50

compound	observedMeasurement
CCCC[C@H](NC(C)=O)C(=O)N[C@H]1CC(=O)NCCCC[C@@H](C(N)=O)NC(=O)[C@H](Cc2c[nH]c3ccccc23)NC(=O)[C@@H]2CCCCN2C(=O)[C@@H](Cc2ccc(-c3ccccc3)cc2)NC(=O)[C@H](C(C)C)NC1=O	4700 nM (antagonist)
CCCC[C@H](NC(C)=O)C(=O)N[C@H]1CC(=O)NCCCC[C@@H](C(N)=O)NC(=O)[C@H](Cc2c[nH]c3ccccc23)NC(=O)[C@@H]2CCCN2C(=O)[C@@H](Cc2ccc(-c3ccccc3)cc2)NC(=O)[C@H](Cc2c[nH]cn2)NC1=O	1200 nM (antagonist)
CCCC[C@H](NC(C)=O)C(=O)N[C@H]1CC(=O)NCCCC[C@@H](C(N)=O)NC(=O)[C@H](Cc2c[nH]c3ccccc23)NC(=O)[C@@H]2CCCN2C(=O)[C@@H](CC2CCCCC2)NC(=O)[C@H](Cc2c[nH]cn2)NC1=O	> 10000 nM

Which IC50 is listed for CCCC[C@H](NC(C)=O)C(=O)N[C@H]1CC(=O)NCCCC[C@@H](C(N)=O)NC(=O)[C@H](Cc2c[nH]c3ccccc23)NC(=O)[C@@H]2CCCN2C(=O)[C@@H](Cc2ccc(-c3ccccc3)cc2)NC(=O)[C@@H]2CCCN2C1=O ?
1000 nM (antagonist)

Input CCCC[C@H](NC(C)=O)C(=O)N[C@H]1CC(=O)NCCCC[C@@H](C(N)=O)NC(=O)[C@H](Cc2c[nH]c3ccccc23)NC(=O)[C@@H]2CCCCN2C(=O)[C@@H](Cc2ccc(-c3ccccc3)cc2)NC(=O)[C@@H]2CCCN2C1=O
160 nM (antagonist)

For CCCC[C@H](NC(C)=O)C(=O)N[C@H]1CC(=O)NCCCC[C@@H](C(N)=O)NC(=O)[C@H](Cc2c[nH]c3ccccc23)NC(=O)[C@@H]2CCCCN2C(=O)[C@@H](Cc2ccc(-c3ccccc3)cc2)NC(=O)[C@@H]2Cc3ccccc3CN2C1=O then?
720 nM (antagonist)

// query: CCCC[C@H](NC(C)=O)C(=O)N[C@H]1CC(=O)NCCCC[C@@H](C(N)=O)NC(=O)[C@H](Cc2c[nH]c3ccccc23)NC(=O)[C@@H]2CCCCN2C(=O)[C@@H](Cc2ccc(Cc3ccccc3)cc2)NC(=O)[C@@H]2CC3CCCCC3N2C1=O (stereo partly drawn) (Ac-[Nle]D[Oic(3aξ,7aξ)][X2][Pip]WK-NH2; lactam 2-7)
1600 nM (antagonist)

// provenance: ChEMBL document CHEMBL1139880
